So I've got a bunch of molecules here, and I need their relative β-galactosidase activity, inducer Ci values.
# Test system: lacZ under control of the tetA promoter (PtetA) in E. coli KM3
# Assay type: cell-based
# experimental-setup: Table 4; chlorimuron 20 ppm; 48 hrs at 30° C.
Please reply with the value in numeric form only.

Would you mind telling me what relative β-galactosidase activity, inducer Ci value was observed for L1-2: SU-responsive TetR(B) ligand binding domain variant, library L1 hit, SEQ ID NO: 3 (protein, Sulfonylurea responsive repressor L1-02) MGSRLDKSKVINSALELLNEVGIEGLTTRKLAQKLGVEQPTLYWHVKNKRALLDALAIEMLDRHATHFCPLEGESWQDFLRNNAKSFRCALLSHRDGAKVCLGTAVTEKQYETMENILAFLCQQGFSLENALYARRAVIAFTLGCVLWDQEYQVAKEERETPTTDSMPPLLRQARELIDHQGAEPAFLFGLELIICGLEKQLKCESGS ? 13.6

Do the same for L1-9: SU-responsive TetR(B) variant, library L1 hit (protein, Sulfonylurea responsive repressor L1-09) MGSRLDKSKVINSALELLNEVGIEGLTTRKLAQKLGVEQPTLYWHVKNKRALLDALAIEMLDRHATHFCPLEGESWQDFLRNNAKSMRCALLSHRDGAKVCLGTGFTEKQYETAENSLAFLCQQGFSLENALYAMQAVCIFTLGCVLLDQELQVAKEERETPTTDSMPPLLRQALELKDHQGAEPAFLFGLELIICGLEKQLKCESGS please 9.8
